Tested on: rat thoracic aorta rings
Type: cell-based
Procedure: Binding and functional experiments were performed at least in triplicate and data, expressed as mean±S.E.M, were analyzed using the Prism software (Graph Pad Software, San Diego, Calif.). […] The EC50, pEC50, pIC50 values as well as the Emax value were determined from the concentration-response curves using a sigmoidal dose-response fit with variable slope. […] The slope is calculated from the double reciprocal plot of equiactive concentrations of agonist in the presence and absence of antagonist.
pEC50: −log10 of the molar value.
property-label: pEC50

CC(C)[C@H](NC(=O)[C@@H]1CSSC[C@H](NC(=O)[C@H](C)N)C(=O)N[C@@H](Cc2ccccc2)C(=O)N[C@@H](c2ccccc2)C(=O)N[C@@H](CCCCN)C(=O)N[C@@H](Cc2ccc(O)cc2)C(=O)N1)C(=O)O    6.60
CC(C)[C@H](NC(=O)[C@@H]1CSSC[C@H](NC(=O)[C@H](C)N)C(=O)N[C@@H](Cc2ccccc2)C(=O)N[C@H](c2ccccc2)C(=O)N[C@@H](CCCCN)C(=O)N[C@@H](Cc2ccc(O)cc2)C(=O)N1)C(=O)O [Compound 15, [D-Phg^4]URP]    6.93

[A] CC(C)[C@H](NC(=O)[C@@H]1CSSC[C@H](NC(=O)[C@H](C)N)C(=O)N[C@@H](Cc2ccccc2)C(=O)N[C@H](Cc2cccc3ccccc23)C(=O)N[C@@H](CCCCN)C(=O)N[C@@H](Cc2ccc(O)cc2)C(=O)N1)C(=O)O [Compound 4, [D-1-Nal^4]URP]
[B] CC(C)[C@H](NC(=O)[C@@H]1CSSC[C@H](NC(=O)[C@H](C)N)C(=O)N[C@@H](Cc2ccccc2)C(=O)N[C@@H]2Cc3c([nH]c4ccccc34)CN(C2=O)[C@@H](CCCCN)C(=O)N[C@@H](Cc2ccc(O)cc2)C(=O)N1)C(=O)O [Compound 13, [D-Aia^4]URP]
Qu. Which has the smaller recorded pEC50, A or B ? # respond with the chosen item's label
Ans. A
